src = paper PMC6155837

# tgt: AChE (from rat brain) (Rattus norvegicus)
# Construct: rat AChE purified from the rat brain; from tissue; host or cells: rat brain
# Sequence (P37136 32-614): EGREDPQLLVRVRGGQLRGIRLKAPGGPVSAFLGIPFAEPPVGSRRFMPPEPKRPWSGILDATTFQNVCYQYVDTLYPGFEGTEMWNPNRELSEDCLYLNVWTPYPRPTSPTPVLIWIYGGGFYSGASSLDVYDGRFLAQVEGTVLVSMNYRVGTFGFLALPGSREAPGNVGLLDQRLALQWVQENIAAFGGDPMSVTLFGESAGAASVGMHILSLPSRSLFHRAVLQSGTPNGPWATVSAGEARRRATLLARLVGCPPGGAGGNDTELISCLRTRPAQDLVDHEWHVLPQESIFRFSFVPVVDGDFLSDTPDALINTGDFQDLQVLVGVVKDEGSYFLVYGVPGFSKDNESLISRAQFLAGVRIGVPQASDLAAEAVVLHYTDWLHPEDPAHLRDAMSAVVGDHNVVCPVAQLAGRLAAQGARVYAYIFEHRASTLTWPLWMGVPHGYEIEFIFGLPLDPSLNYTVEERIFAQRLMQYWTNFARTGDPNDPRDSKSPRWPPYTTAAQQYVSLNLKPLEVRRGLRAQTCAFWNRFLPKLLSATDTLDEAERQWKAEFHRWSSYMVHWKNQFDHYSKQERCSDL
# protocol: biochemical
# Assay type: biochemical
readout_name: pIC50
Numbers only, as −log10 of the molar value.

Recorded pIC50, per entry:
>>> endpoint_result("O=C(CCN1CCCCC1)c1ccc(CCc2ccc(C(=O)CCN3CCCCC3)cc2)cc1 [Compound 30]")
6.30
>>> endpoint_result("CN(C)CCC(=O)c1ccc(CCc2ccc(C(=O)CCN(C)C)cc2)cc1 [Compound 29]")
5.58
>>> endpoint_result("CN1CCN(CC(=O)c2ccc(CCc3ccc(C(=O)CN4CCN(C)CC4)cc3)cc2)CC1 [Compound 27]")
4.13

--- query ---
Query: Report pIC50 for O=C(CCCN1CCCCC1)c1ccc(-c2ccc(C(=O)CCCN3CCCCC3)cc2)cc1 [Compound 23] please.
Result: 5.88

----------
# tgt: BuChE (from human serum) (Homo sapiens, UniProt P06276)
# Construct: human BuChE purified by human serum; from tissue; host or cells: human serum
# Sequence (P06276 29-602): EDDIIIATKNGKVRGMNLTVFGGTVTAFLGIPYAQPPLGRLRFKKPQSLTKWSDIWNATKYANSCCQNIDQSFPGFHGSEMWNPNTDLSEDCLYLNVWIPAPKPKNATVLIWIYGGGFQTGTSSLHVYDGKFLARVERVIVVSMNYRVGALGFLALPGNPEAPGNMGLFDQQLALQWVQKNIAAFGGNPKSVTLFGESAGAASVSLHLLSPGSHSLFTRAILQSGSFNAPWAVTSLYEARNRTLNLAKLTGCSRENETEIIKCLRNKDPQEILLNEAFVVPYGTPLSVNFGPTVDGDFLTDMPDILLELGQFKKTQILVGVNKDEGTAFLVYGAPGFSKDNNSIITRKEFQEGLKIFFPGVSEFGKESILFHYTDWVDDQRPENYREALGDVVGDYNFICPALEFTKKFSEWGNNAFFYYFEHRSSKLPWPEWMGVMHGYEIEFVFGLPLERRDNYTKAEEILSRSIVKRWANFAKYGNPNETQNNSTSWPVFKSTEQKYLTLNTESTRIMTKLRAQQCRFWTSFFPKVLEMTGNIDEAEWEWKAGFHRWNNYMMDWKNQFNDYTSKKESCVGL
# protocol: biochemical
readout_name: IC50 (µM)
Give bare numbers, in µM.

>>> endpoint_result("OC(CCN1CCCCC1)c1ccc(-c2ccc(C(O)CCN3CCCCC3)cc2)cc1 (stereo not shown)")
13.8
>>> endpoint_result("O=C(CCCN1CCCCC1)c1ccc(-c2ccc(C(=O)CCCN3CCCCC3)cc2)cc1")
5.9
>>> endpoint_result("CCN(CC)CCC(=O)c1ccc(-c2ccc(C(=O)CCN(CC)CC)cc2)cc1")
0.74

Query: What measured IC50 is associated with O=C(CCN1CCOCC1)c1ccc(CCc2ccc(C(=O)CCN3CCOCC3)cc2)cc1 on BuChE (from human serum) (Homo sapiens, UniProt P06276)?
Result: 6.38

----------
Record form. Attribute: pIC50. Fill in for each entry.
# tgt: BuChE (from human serum) (Homo sapiens, UniProt P06276)
# Construct: human BuChE purified by human serum; from tissue; host or cells: human serum
# protocol: biochemical
One number for each entry, as −log10 of the molar value.

Recorded pIC50, per entry:
>>> endpoint_result("O=C(CCCCN1CCCCC1)c1ccc(CCc2ccc(C(=O)CCCCN3CCCCC3)cc2)cc1")
5.79
>>> endpoint_result("O=C(CCN1CCOCC1)c1ccc(-c2ccc(C(=O)CCN3CCOCC3)cc2)cc1")
6.14
>>> endpoint_result("O=C(CCN1CCC1)c1ccc(-c2ccc(C(=O)CCN3CCC3)cc2)cc1")
5.62

Dear colleague, could you please provide pIC50 for the molecules listed below?
1. CN(C)CCC(=O)c1ccc(CCc2ccc(C(=O)CCN(C)C)cc2)cc1
2. O=C(CCCN1CCCCC1)c1ccc(CCc2ccc(C(=O)CCCN3CCCCC3)cc2)cc1
3. CN1CCN(CC(=O)c2ccc(CCc3ccc(C(=O)CN4CCN(C)CC4)cc3)cc2)CC1
4. CN(C)CCC(=O)c1ccc(-c2ccc(C(=O)CCN(C)C)cc2)cc1
5. O=C(CCN1CCCCC1)c1ccc(-c2ccc(C(=O)CCN3CCCCC3)cc2)cc1
6. O=C(CN1CCCCC1)c1ccc(-c2ccc(C(=O)CN3CCCCC3)cc2)cc1

Result:
5.92
4.72
4.18
6.72
5.90
4.14

----------
# tgt: AChE (from rat brain) (Rattus norvegicus)
# Construct: rat AChE purified from the rat brain; from tissue; host or cells: rat brain
# protocol: biochemical
# Type: biochemical
readout_name: pIC50
Numbers only, as −log10 of the molar value.

>>> endpoint_result("CN(C)CCC(=O)c1ccc(-c2ccc(C(=O)CCN(C)C)cc2)cc1")
6.12
>>> endpoint_result("OC(CCN1CCCCC1)c1ccc(-c2ccc(C(O)CCN3CCCCC3)cc2)cc1 (stereo not shown)")
4.50
>>> endpoint_result("CN1CCN(CCC(=O)c2ccc(-c3ccc(C(=O)CCN4CCN(C)CC4)cc3)cc2)CC1")
5.79
>>> endpoint_result("CN(C)CC(=O)c1ccc(CCc2ccc(C(=O)CN(C)C)cc2)cc1")
4.21
>>> endpoint_result("O=C(CCN1CCCC1)c1ccc(-c2ccc(C(=O)CCN3CCCC3)cc2)cc1")
6.48

Dear colleague, could you please provide pIC50 for the molecules listed below?
1. O=C(CCN1CCOCC1)c1ccc(CCc2ccc(C(=O)CCN3CCOCC3)cc2)cc1
2. CCCN(CCC)CCC(=O)c1ccc(-c2ccc(C(=O)CCN(CCC)CCC)cc2)cc1

Result:
5.45
6.06

Dear colleague, could you please provide pIC50 for the molecules listed below?
1. O=C(CCCCN1CCCCC1)c1ccc(-c2ccc(C(=O)CCCCN3CCCCC3)cc2)cc1
2. O=C(CCCN1CCCCC1)c1ccc(CCc2ccc(C(=O)CCCN3CCCCC3)cc2)cc1
3. CCN(CC)CCC(=O)c1ccc(-c2ccc(C(=O)CCN(CC)CC)cc2)cc1
4. O=C(CCN1CCCCCC1)c1ccc(-c2ccc(C(=O)CCN3CCCCCC3)cc2)cc1
5. O=C(CCN1CCCCC1)c1ccc(-c2ccc(C(=O)CCN3CCCCC3)cc2)cc1
6. O=C(CCCCN1CCCCC1)c1ccc(CCc2ccc(C(=O)CCCCN3CCCCC3)cc2)cc1
7. O=C(CCN1CCOCC1)c1ccc(-c2ccc(C(=O)CCN3CCOCC3)cc2)cc1
8. O=C(CCN1CCC1)c1ccc(-c2ccc(C(=O)CCN3CCC3)cc2)cc1

Result:
6.09
5.44
5.93
5.84
7.02
6.72
6.01
6.15

----------
Record form. Attribute: IC50. Fill in for each entry.
# tgt: BuChE (from human serum) (Homo sapiens, UniProt P06276)
# Construct: human BuChE purified by human serum; from tissue; host or cells: human serum
# protocol: biochemical
# recorded_conditions: BuChE from human serum; means ± SEM of three experiments; read-out: IC50 µM ± SEM BuChE
One number for each entry, in µM.

>>> endpoint_result("O=C(CN1CCOCC1)c1ccc(-c2ccc(C(=O)CN3CCOCC3)cc2)cc1 [Compound 14]")
1.44

Dear colleague, could you please provide IC50 for the compounds listed below?
1. OC(CCN1CCCCC1)c1ccc(CCc2ccc(C(O)CCN3CCCCC3)cc2)cc1 (centres unmarked) [Compound 36]
2. O=C(CCN1CCCCC1)c1ccc(CCc2ccc(C(=O)CCN3CCCCC3)cc2)cc1 [Compound 30]
3. O=C(CN1CCOCC1)c1ccc(CCc2ccc(C(=O)CN3CCOCC3)cc2)cc1 [Compound 28]
4. CN(C)CC(=O)c1ccc(-c2ccc(C(=O)CN(C)C)cc2)cc1 [Compound 12]

Result:
25.9
3.14
6.3
91.7

----------
# tgt: BuChE (from human serum) (Homo sapiens, UniProt P06276)
# Construct: human BuChE purified by human serum; from tissue; host or cells: human serum
# protocol: biochemical
# recorded_conditions: BuChE from human serum; footnote d: inactive up to 100 µM/L; read-out: IC50 µM ± SEM BuChE
readout_name: IC50

Query: Report IC50 for OC(CCN1CCOCC1)c1ccc(-c2ccc(C(O)CCN3CCOCC3)cc2)cc1 (stereo not shown) [Compound 35] please.
Result: > 100 µM

----------
# tgt: BuChE (from human serum) (Homo sapiens)
# Construct: human BuChE purified by human serum; from tissue; host or cells: human serum
# protocol: biochemical
Record form. Attribute: IC50. Fill in for each entry.
Respond with a number, then the unit of measure.

>>> endpoint_result("O=C(CCN1CCCCCC1)c1ccc(-c2ccc(C(=O)CCN3CCCCCC3)cc2)cc1")
"1940 nM"
>>> endpoint_result("O=C(CN1CCCCC1)c1ccc(CCc2ccc(C(=O)CN3CCCCC3)cc2)cc1")
"20700 nM"
>>> endpoint_result("CCCN(CCC)CCC(=O)c1ccc(-c2ccc(C(=O)CCN(CCC)CCC)cc2)cc1")
"2830 nM"
>>> endpoint_result("CN(C)CC(=O)c1ccc(CCc2ccc(C(=O)CN(C)C)cc2)cc1")
"9110 nM"
>>> endpoint_result("O=C(CCCCN1CCCCC1)c1ccc(-c2ccc(C(=O)CCCCN3CCCCC3)cc2)cc1")
"2650 nM"

Dear colleague, could you please provide IC50 for the compounds listed below?
1. O=C(CCN1CCCC1)c1ccc(-c2ccc(C(=O)CCN3CCCC3)cc2)cc1
2. CN1CCN(CCC(=O)c2ccc(-c3ccc(C(=O)CCN4CCN(C)CC4)cc3)cc2)CC1

Result:
1: 1160 nM; 2: 13800 nM
